Listing: growth of selected compounds
# Tested on: LOX IMVI melanoma
# protocol_text: NCI-60 one-dose screen, 48 h (100 = growth as untreated, 0 = no growth, -100 = all killed)
# cond: 10 µM unless noted
The panel holds about 83,000 compounds, 20% with a hit somewhere; the sample as a whole holds those more often.
The reply should contain only the number, in %.

A selection of reference data follows.
compound=COc1cc(/C=C/c2nnc(-c3cc(-c4ccccc4)n[nH]3)o2)cc(OC)c1OC recorded_result=95.4
compound=Cc1nc2cc(NC(=O)CN3CCN(CCN4C(=O)c5cccc6cccc(c56)C4=O)CC3)ccc2s1 recorded_result=39.9
compound=CC[C@H](C)C(=O)O[C@H]1C[C@@H](C)C=C2C=C[C@H](C)[C@H](CC[C@@H]3C[C@@H](O)CC(=O)O3)[C@H]21 recorded_result=25.1
compound=O=[N+]([O-])c1cnc(Sc2ccncn2)c([N+](=O)[O-])c1 recorded_result=96.8
compound="COc1ccc(C(=O)C(C)Br)cc1OC (stereo not drawn)" recorded_result=79.2

Incoming: Fill in: growth of `Cn1cnc([N+](=O)[O-])c1S(=O)(=O)Oc1ccc(Cl)cc1` is ___
Outgoing: 45.2

Incoming: What does the record list as growth for `Nc1ccc(C2=Nc3cccc4cccc(c34)S2)cc1` ?
Outgoing: 91.8

Incoming: Entry `Cc1nn(-c2ccccc2)c2ncc3c(c12)C(=O)N(Cc1ccccc1)C3=O` has what growth?
Outgoing: 37.2

Incoming: Can you look up the measured growth of `COc1ccc2nc3cc(Cl)ccc3c(Nc3cc(C(C)C)c(O)cc3C)c2c1` for me?
Outgoing: 26.8

Incoming: Consider the compound `COc1ccc(/C=C2\NC(=S)NC2=O)cc1` and give its measured growth.
Outgoing: 112
